- System: A498 renal
- assay procedure: NCI-60 one-dose screen, 48 h
- condition notes: 10 µM unless noted
About 83,000 compounds went through this panel and 20% of them were active in at least one assay; those are over-represented in the sample as a whole. Active and inactive are the calls of the source. The calls were made as follows: active = growth percent below 10; inactive = the rest.
Labels: active, inactive

{"columns": ["compound", "classification"],
 "data": [
  ["CC[C@@]1(O)C(=O)OCc2c1cc1n(c2=O)Cc2cc3ccccc3nc2-1", "active"],
  ["CC(=O)O[C@H]1C[C@@H]2OC3C=C(C)CCC3(C)[C@@]1(C)[C@@]21CO1 (stereo not given in full)", "active"],
  ["COC1=C(C)C(=O)C2=C(C1=O)C(CO)N1C(C#N)C3CC4C(C1C2N1CCOC41)N3C (stereo not given)", "active"],
  ["Oc1cc[c]([Hg][Cl])cc1", "inactive"],
  ["CC[C@@]1(O)C[C@H](OC2CC(N(C)C)C(O)C(C)O2)c2c(O)c3c(c(O)c2[C@H]1OC1CC(N(C)C)C(O)C(C)O1)C(=O)c1cccc(O)c1C3=O (stereo not given in full)", "active"]
]}
